# test-protocol: reversal of MRP1-mediated doxorubicin resistance, pilot screen, H69AR cells, doxorubicin co-treatment (AID 601)
# condition-label: H69AR cells + 2 uM doxorubicin, CellTiter-Glo, 72 h; measured here: viability with 2 uM doxorubicin; at 10 µM; stronger effect = lower value
Quick reference: viability of the listed items.
measured-quantity: viability (%)

1. COC(=O)c1ccc(C2C(C#N)=C(N)Oc3cc(C)n(C)c(=O)c32)cc1 (stereo unspecified)	95.4
2. CCN(CC)CC(=O)Nc1ccc(-c2nc3cc(NC(=O)CN(CC)CC)ccc3o2)cc1	58.6
3. CCCCOc1ccc(N(CC(=O)NC2CCCC2)C(=O)CCC(=O)Nc2ccccn2)cc1	64.4
4. COc1cc2c(cc1OC)CN(C(=O)COc1ccc(C)c(C)c1)CC2	89.5
5. Cc1c(C)c2cc(Cl)c(O)c(CN3CCCCC3)c2oc1=O	95.5
6. CCSc1nc(N)c(C#N)c(-c2ccccc2Cl)c1C#N	78.9
7. Cc1cc(NC(=O)c2cnn3c(C(F)F)cc(C4CC4)nc23)no1	95.1
8. Cn1nc(C(C)(C)C)cc1C(=O)NCc1ccc(N2CCCC2=O)cc1	103
9. COc1cc(CO)cc(-c2cc(CO)cc(OC)c2OC)c1OC	90.9
10. O=C(NCCCN1CCCC1=O)C1CCN(S(=O)(=O)N2CCOCC2)CC1	94.8
11. CC(C)(C)NC(=O)CN(Cc1cccs1)C(=O)c1csnn1	108

====

# test-protocol: growth inhibitors of H69AR lung tumor, primary screen, human, duplicate replicates (AID 580);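 note: 100% = mean luminescence of untreated wells and 0% = no signal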
# condition-label: H69AR lung tumor cells viability, ATP luminescence, 72 h; at 10 µM; stronger effect = lower value
measured-quantity: viability (%)

1. COc1cccc(CN=CC2=C(O)CC(C)(C)CC2=O)c1OC	100
2. Fc1ccc(C(c2ccc(F)cc2)N2CCN(C/C=C/c3ccccc3)CC2)cc1	76.7
3. Cc1ccc(S(=O)(=O)Cn2nnnc2CN(Cc2ccco2)Cc2cccs2)cc1	80.6
4. COc1nc2ccc(C)cc2cc1-c1noc(-c2cccnc2)n1	104
5. CCCNC(=O)N1CCN(S(=O)(=O)c2ccc(C)c(C)c2)CC1	95
6. COCc1nnc(NC(=O)c2ccc(NC(C)=O)cc2)s1	105
7. COC1CCCCC1NS(=O)(=O)c1ccccc1 (stereo unspecified)	97.7
8. CCC(C(=O)NC(C)CCc1ccco1)n1nc(C)n2c(cc3occc32)c1=O (stereo unspecified)	83.5
9. Cc1c2cnn(CC(=O)N3CCN(c4ncccn4)CC3)c(=O)c2c(C)n1Cc1ccc(F)cc1	99.5
10. CCC(C(=O)N1CCc2cc(OC)c(OC)cc2C1)c1ccccc1 (stereo unspecified)	94.5
11. COc1cc2c(cc1OC)CN(Cc1nc3ccsc3c(=O)[nH]1)CC2	92.2
12. COC(=O)Nc1sccc1C(=O)Nc1sccc1C(=O)OC	52.2
13. COCCCNC(=O)CCCn1c(=O)c2ccccc2n(CC(=O)Nc2c(C)cccc2C)c1=O	93.1
14. O=C(Nc1nc(-c2ccccc2)cs1)C1CCCO1 (stereo unspecified)	94.2
15. COc1ccc(-c2nnnn2C)cc1S(=O)(=O)NCc1ccccc1	95.7
16. O=S(=O)(c1ccc2c(c1)OCCO2)N(Cc1ccc(F)cc1)Cc1nnc(-c2cccs2)o1	92.1
17. CC(=O)N1C(=O)c2cccc3cccc(c23)C(=O)N1C(C)=O	91.8
18. Cc1cc(C(F)(F)F)c2c(C)nn(CCc3nn[nH]n3)c2n1	96.1
19. Cc1nc(NC(=O)c2ccccc2)sc1-c1csc(NCc2ccco2)n1	20.2
20. CC(=O)Nc1ccc(S(=O)(=O)NCc2csc(-c3cccnc3)n2)cc1	97.6
21. O=C(Nc1ncnc2sc3c(c12)CCCCC3)c1ccco1	73.8
22. Cc1nc(CCNS(=O)(=O)c2cccs2)cs1	97.5
23. CN1CCN(C(=O)NC2CCCN2S(=O)(=O)c2ccc(Cl)cc2)CC1 (stereo unspecified)	88.9
24. COc1ccc(-c2cc(N3CCCC3)n3ncnc3n2)cc1	87.2
25. O=C(CSc1n[nH]c(-c2ccco2)n1)Nc1sc2c(c1C(=O)Nc1ccccc1)CCCC2	65.9
26. CCN(CC(=O)Nc1c(C(=O)OC)[nH]c2ccccc12)c1ccc2c(c1)OCO2	72
27. CCOC(=O)c1oc2cc(OCC(N)=O)ccc2c(=O)c1-c1ccc(OC)c(OC)c1	99
28. CN(C)c1nc(N(C)C)nc(N(C)C)n1	96.8
29. c1cnc(NCCNc2ncccn2)nc1	99.8
30. COc1ccccc1OCc1nc2ccccc2[nH]1	99.3
31. O=C(Nc1nnc(SCC(=O)N2CCCCC2)s1)C1CCCCC1	101
32. CCOC(=O)C1=C(C)Nc2nc(SCC(=O)OC)nn2C1c1cc(F)cc(F)c1 (stereo unspecified)	92.9
33. CCOC(=O)c1cc(-c2ccccc2)sc1N	81.3
34. COc1ccc(S(=O)(=O)Nc2ccccc2SC)cc1C	87
35. CSc1ccccc1C(=O)NC1CC2CCC1C2 (stereo unspecified)	94.8
36. O=C(CSc1nnc(-c2ccc(Br)cc2)n1C1CCCCC1)N1CCCC1	80.2
37. O=S(=O)(c1ccc2c(c1)OCCO2)N1CCC(n2nnc3cc(F)ccc32)CC1	84.2
38. Cc1ccc(-n2ncc3c(N4CCN(c5ccc(F)cc5)CC4)ncnc32)c(C)c1	71.4
39. CC(=O)c1c(C)[nH]c(C(=O)OCc2nnc(-c3ccccc3)o2)c1C	72.6
40. O=C(O)CCc1cc(I)c(Oc2ccc(O)c(I)c2)c(I)c1	102
41. CC1CN(S(=O)(=O)c2ccc(Cl)c(C(F)(F)F)c2)CC(C)O1 (stereo unspecified)	100
42. COc1ccc(S(=O)(=O)N2CCCC(C(=O)NCc3ccccn3)C2)cc1 (stereo unspecified)	95.5
43. COc1cc2c(OC)cccc2cc1C(=O)O	88.2
44. CCCSC1=C(C#N)C(c2ccccc2OCC)CC(=O)N1 (stereo unspecified)	90.1
45. O=C(CCNC(=O)Cn1ccc2ccccc2c1=O)NCCN1CCN(c2ccccc2F)CC1	88.1
46. C/C(Cl)=C\Cn1c(Nc2ccc(C)cc2)nc2c1c(=O)n(C)c(=O)n2C	72.1
